Form field: OD max (one value per entry).
Target: T1, human LAG3 on recombinant CHO cells (human, UniProt P18627 23-525)
T1 construct: whole, on cells; also called Lag3 cells; recombinant CHO cells expressing Lag3
T1 sequence (looked up): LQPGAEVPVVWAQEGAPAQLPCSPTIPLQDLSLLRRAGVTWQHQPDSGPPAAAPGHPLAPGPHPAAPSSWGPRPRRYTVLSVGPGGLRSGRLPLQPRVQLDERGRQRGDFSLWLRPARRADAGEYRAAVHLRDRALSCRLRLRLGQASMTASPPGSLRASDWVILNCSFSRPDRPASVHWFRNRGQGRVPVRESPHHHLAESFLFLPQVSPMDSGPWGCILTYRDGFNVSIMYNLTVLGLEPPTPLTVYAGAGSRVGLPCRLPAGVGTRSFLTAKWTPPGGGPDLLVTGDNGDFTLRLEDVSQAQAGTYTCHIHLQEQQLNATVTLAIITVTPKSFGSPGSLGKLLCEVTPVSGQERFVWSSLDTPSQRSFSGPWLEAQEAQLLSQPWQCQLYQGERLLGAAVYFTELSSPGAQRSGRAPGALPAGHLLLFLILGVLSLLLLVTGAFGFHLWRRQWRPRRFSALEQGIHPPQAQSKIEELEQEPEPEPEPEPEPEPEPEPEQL
Assay: cell ELISA on CHO cells expressing human LAG3;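 note: bivalent Fc-format binders titrated in threefold steps from 6 µg/mL, incubated with the cells 2 h at 4 °C, bound antibody detected by HRP-coupled anti-human IgG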

{"BINDER": "bivalent P21A03 aVH-Fc (Fc fusion) EVQLVESGGGLVQPGGSLRLSCAASGFNIKDTCIGWVRRAPGKGTELVAEICEDIGYTRYADSVKGRFTISADTSKNTAYLQMNSLRAEDTAVYYCAANEHSVGFNYWGQGTTVTVSSGGGGSGGGGSDKTHTCPPCPAPEAAGGPSVFLFPPKPKDTLMISRTPEVTCVVVDVSHEDPEVKFNWYVDGVEVHNAKTKPREEQYNSTYRVVSVLTVLHQDWLNGKEYKCKVSNKALGAPIEKTISKAKGQPREPQVYTLPPSRDELTKNQVSLTCLVKGFYPSDIAVEWESNGQPENNYKTTPPVLDSDGSFFLYSKLTVDKSRWQQGNVFSCSVMHEALHNHYTQKSLSLSPGK", "OD max": "1.2 OD"}
{"BINDER": "bivalent P11E9 aVH-Fc (Fc fusion) EVQLVESGGGLVQPGGSLRLSCAASGFNIKDTCIGWVRRAPGKGTELVAEICHDIGYTRYADSVKGRFTISADTSKNTAYLQMNSLRAEDTAVYYCAAEEHVASFEYWGQGTTVTVSSGGGGSGGGGSDKTHTCPPCPAPEAAGGPSVFLFPPKPKDTLMISRTPEVTCVVVDVSHEDPEVKFNWYVDGVEVHNAKTKPREEQYNSTYRVVSVLTVLHQDWLNGKEYKCKVSNKALGAPIEKTISKAKGQPREPQVYTLPPSRDELTKNQVSLTCLVKGFYPSDIAVEWESNGQPENNYKTTPPVLDSDGSFFLYSKLTVDKSRWQQGNVFSCSVMHEALHNHYTQKSLSLSPGK", "OD max": "1.3 OD"}
{"BINDER": "bivalent P11E2 aVH-Fc (Fc fusion) EVQLVESGGGLVQPGGSLRLSCAASGFNIKDTCIGWVRRAPGKGTELVAEICDDIGYTRYADSVKGRFTISADTSKNTAYLQMNSLRAEDTAVYYCASQEHQWSFKYWGQGTTVTVSSGGGGSGGGGSDKTHTCPPCPAPEAAGGPSVFLFPPKPKDTLMISRTPEVTCVVVDVSHEDPEVKFNWYVDGVEVHNAKTKPREEQYNSTYRVVSVLTVLHQDWLNGKEYKCKVSNKALGAPIEKTISKAKGQPREPQVYTLPPSRDELTKNQVSLTCLVKGFYPSDIAVEWESNGQPENNYKTTPPVLDSDGSFFLYSKLTVDKSRWQQGNVFSCSVMHEALHNHYTQKSLSLSPGK", "OD max": "1.2 OD"}
{"BINDER": "bivalent P9G1 aVH-Fc (Fc fusion) EVQLVESGGGLVQPGGSLRLSCAASGFNIKDTCIGWVRRAPGKGTELVAEICQDIGYTRYADSVKGRFTISADTSKNTAYLQMNSLRAEDTAVYYCAGEEGATNFKYWGQGTTVTVSSGGGGSGGGGSDKTHTCPPCPAPEAAGGPSVFLFPPKPKDTLMISRTPEVTCVVVDVSHEDPEVKFNWYVDGVEVHNAKTKPREEQYNSTYRVVSVLTVLHQDWLNGKEYKCKVSNKALGAPIEKTISKAKGQPREPQVYTLPPSRDELTKNQVSLTCLVKGFYPSDIAVEWESNGQPENNYKTTPPVLDSDGSFFLYSKLTVDKSRWQQGNVFSCSVMHEALHNHYTQKSLSLSPGK", "OD max": "1.2 OD"}
